Reported values of protein stability index for individual entries
Assay: protein stability index of a GFP-peptide fusion (GPS, HEK-293T) (PSI 1-6); higher = more stable;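 also: 24-mer peptide tiles fused after GFP, lentivirally expressed, FACS-sorted into six equal bins by GFP/DsRed ratio, decoded by Illumina sequencing, PSI is the read-weighted mean bin number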
Settings: treatment: MLN4924 1 uM, 8 h; c terminus: a fixed tail appended

[
  {
    "residue.codes": "GLGELGAALLQLVRRLQALRLERE [ESRRA]",
    "protein stability index": 2.54
  },
  {
    "residue.codes": "PTEQVNELVALIPHSDQRLRPQRT [TMEM106C]",
    "protein stability index": 4.75
  },
  {
    "residue.codes": "RINLVAAIFSAPAFPAAVSSMKKF [PSD2]",
    "protein stability index": 2.27
  },
  {
    "residue.codes": "DPNFKMEHQNKRSPLHAAAEAGHV [EHMT1]",
    "protein stability index": 5.04
  },
  {
    "residue.codes": "AISVVGVSAGGHTLSRPPPAQVPR [TFE3]",
    "protein stability index": 3.35
  },
  {
    "residue.codes": "KLQVRLATKTEPKKLEKYLQKLSA [ELOA2]",
    "protein stability index": 2.81
  },
  {
    "residue.codes": "MAMAVMLYYSNFVLALEERFGVRP [MFSD9]",
    "protein stability index": 3.41
  },
  {
    "residue.codes": "KKNGLYLSLVLGNVNVTLLSKQAK [TMEM120A]",
    "protein stability index": 2.57
  },
  {
    "residue.codes": "EGFHNYHHSFPYDYSASEYRWHIN [SCD]",
    "protein stability index": 2.48
  },
  {
    "residue.codes": "LEVDHIRTIYHMFIALLILFILST [SOAT1]",
    "protein stability index": 2.43
  },
  {
    "residue.codes": "SFVCWSRGFMEMNGRGELVESLKR [AUP1]",
    "protein stability index": 2.2
  },
  {
    "residue.codes": "VYKSLLLLAYLIRNGSERVVTSAR [CLINT1]",
    "protein stability index": 2.59
  },
  {
    "residue.codes": "KVVKSAQHYTETALDEIKLLKCVR [SRPK2]",
    "protein stability index": 2.68
  },
  {
    "residue.codes": "GAAESPYGHPAGIDYKTTTILLDG [RAB40B]",
    "protein stability index": 3.96
  }
]

====

Assay: protein stability index of a GFP-peptide fusion (GPS, HEK-293T) (PSI 1-6); higher = more stable
Details: treatment: DMSO; c terminus: a fixed tail appended
Think of 4 as a floor: if protein stability index stands on it or above, it is rule met; beneath it, rule not met.

[
  {
    "residue.codes": "LEAIRKQDLVELYLTNCEKLSAKS [ZER1]",
    "label.class": "rule not met"
  },
  {
    "residue.codes": "LTRMTRVSEFLKVAEQVGIDKGDI [SNAP91]",
    "label.class": "rule not met"
  },
  {
    "residue.codes": "VSEWASKAKANGITMYAVGVGKAI [MATN2]",
    "label.class": "rule not met"
  },
  {
    "residue.codes": "HSQFIGYPITLYLEKEREKEISDD [HSP90AB1]",
    "label.class": "rule not met"
  },
  {
    "residue.codes": "TRYSVAGLSPYSDYEFRVVAVNNI [PTPRD]",
    "label.class": "rule not met"
  },
  {
    "residue.codes": "IWSEVFTVEKPGGKKVAVVLMDTQ [ATL3]",
    "label.class": "rule not met"
  },
  {
    "residue.codes": "LPSPVQACSEDSLFLRCSLRHKDE [DRICH1]",
    "label.class": "rule met"
  },
  {
    "residue.codes": "GNPEPVSYYIIQHKPKNSEELYKE [PTPRD]",
    "label.class": "rule not met"
  },
  {
    "residue.codes": "KEVPVVHTETKTITYESSQVDPGT [EPB41L3]",
    "label.class": "rule met"
  },
  {
    "residue.codes": "LDCEGTTNKMKSPETKQRKLSPLR [KMT2E]",
    "label.class": "rule met"
  },
  {
    "residue.codes": "KESMSEADRAQKMDGESEEEQESV [EHMT1]",
    "label.class": "rule met"
  },
  {
    "residue.codes": "NITRIYNIGKSHQGLKLYAVEISD [CPXM2]",
    "label.class": "rule not met"
  },
  {
    "residue.codes": "DVLAHQVPNAKKLRRKEQLWEKLA [NOP53]",
    "label.class": "rule not met"
  },
  {
    "residue.codes": "TIGNLVPQKTYSVKVLAFTSIGDG [PTPRD]",
    "label.class": "rule not met"
  },
  {
    "residue.codes": "LTSLHHFMHSRNLYILGNFMQLKC [PNLIPRP1]",
    "label.class": "rule not met"
  },
  {
    "residue.codes": "TVNIHRLHVKRSMGWKKACDELEL [ZMYND11]",
    "label.class": "rule not met"
  },
  {
    "residue.codes": "FATFCGGLAANGALQRLDLRNNQI [LRRC45]",
    "label.class": "rule not met"
  }
]

The measurements presented in this section are drawn from the supplement of paper PMC10567573.
